- Tested on: Escherichia coli
- measurement_notes: Antibacterial activity against Escherichia coli isolate HM605 isolated from colonic mucosal biopsies of patient with Crohn's disease
// boundary case: MBC equal to 1 µg/mL maps to false (0); strictly smaller maps to true (1)

Check out these entries, answers already filled in.
| structure | cat |
| --- | --- |
| CO[C@H]1/C=C/O[C@@]2(C)Oc3c(C)c(O)c4c(O)c(c(/C=N/N5CCN(C)CC5)c(O)c4c3C2=O)NC(=O)/C(C)=C\C=C\[C@H](C)[C@H](O)[C@@H](C)[C@@H](O)[C@@H](C)[C@H](OC(C)=O)[C@@H]1C | false (0) |
| CC[C@H]1OC(=O)[C@H](C)[C@@H](O[C@H]2C[C@@](C)(OC)[C@@H](O)[C@H](C)O2)[C@H](C)[C@@H](O[C@@H]2O[C@H](C)C[C@H](N(C)C)[C@H]2O)[C@](C)(O)C[C@@H](C)CN(C)[C@H](C)[C@@H](O)[C@]1(C)O | false (0) |
| CC[C@H]1OC(=O)[C@H](C)[C@@H](O[C@H]2C[C@@](C)(OC)[C@@H](O)[C@H](C)O2)[C@H](C)[C@@H](O[C@@H]2O[C@H](C)C[C@H](N(C)C)[C@H]2O)[C@](C)(OC)C[C@@H](C)C(=O)[C@H](C)[C@@H](O)[C@]1(C)O | false (0) |
| O=C(O)c1cn(C2CC2)c2cc(N3CCNCC3)c(F)cc2c1=O | true (1) |
| CC1(C)S[C@@H]2[C@H](NC(=O)[C@H](N)c3ccccc3)C(=O)N2[C@H]1C(=O)O | false (0) |

MBC strictly < 1 µg/mL for this compound? "COc1cc(Cc2cnc(N)nc2N)cc(OC)c1OC"
false (0)

---

- Test system: Escherichia coli
- measurement_notes: Antibacterial activity against gentamicin-treated internalized Escherichia coli isolate LF82 in mouse J774A1 cells isolated from chronic ileal lesions of patient with Crohn's disease assessed as intracellular killing of bacteria at 10% compound Cmax after 3 hrs
- Assay type: functional, J774.A1
Activity vs 60%: less than gives true; not less than gives false.

| structure | cat |
| --- | --- |
| CC[C@H]1OC(=O)[C@H](C)[C@@H](O[C@H]2C[C@@](C)(OC)[C@@H](O)[C@H](C)O2)[C@H](C)[C@@H](O[C@@H]2O[C@H](C)C[C@H](N(C)C)[C@H]2O)[C@](C)(OC)C[C@@H](C)C(=O)[C@H](C)[C@@H](O)[C@]1(C)O | true |
| COc1cc(Cc2cnc(N)nc2N)cc(OC)c1OC | true |
| O=C(O)c1cn(C2CC2)c2cc(N3CCNCC3)c(F)cc2c1=O | false |
| CO[C@H]1/C=C/O[C@@]2(C)Oc3c(C)c(O)c4c(O)c(c(/C=N/N5CCN(C)CC5)c(O)c4c3C2=O)NC(=O)/C(C)=C\C=C\[C@H](C)[C@H](O)[C@@H](C)[C@@H](O)[C@@H](C)[C@H](OC(C)=O)[C@@H]1C | true |
| CC1(C)S[C@@H]2[C@H](NC(=O)[C@H](N)c3ccccc3)C(=O)N2[C@H]1C(=O)O | true |

Confirm or reject: Activity of "Cc1cc(NS(=O)(=O)c2ccc(N)cc2)no1" lies strictly below 60%
false

# check: Activity < 60% for "CN(C)[C@@H]1C(O)=C(C(N)=O)C(=O)[C@@]2(O)C(O)=C3C(=O)c4c(O)cccc4[C@@](C)(O)[C@H]3C[C@@H]12"
false
